- System tested: Heat shock 70 kDa protein 1A (Homo sapiens)
- Protocol notes: Hsp70 inhibitors, probe displacement, primary screen, biochemical, fluorescence polarization (AID 583);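 further: plate controls were vehicle for no effect and reference ligand for full effect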
- Settings: mP, at 20 µM
The campaign covered roughly 140,000 compounds. About 80 (0.06%) were called active. No stated cut-off is given here; in the data, active means displacement above about 50%; inactive means the rest. For the sample, actives were picked, then their nearest neighbours and some compounds at random.
Your answer must be one of the following: 1 (active), 0 (inactive)

Query: Dear colleague, could you share the recorded outcome for O=C1NC(=O)N(c2ccc(Br)cc2)C(=O)/C1=C/c1ccco1 when you have a moment?
Result: 1

Query: Dear colleague, could you share the recorded outcome for O=C1N=c2ccccc2=C1c1s/c(=N/N=C2/C(=O)Nc3ccccc32)n(-c2ccc(O)cc2)c1O when you have a moment?
Result: 1

Query: Dear colleague, could you share the recorded outcome for O=C(NCc1ccc2c(c1)OCO2)C1COc2ccccc2O1 (stereo not drawn) when you have a moment?
Result: 0

Query: Dear colleague, could you share the recorded outcome for O=C1N=c2ccccc2=C1c1sc(=O)n(-c2ccc(O)cc2)c1O when you have a moment?
Result: 0

Query: Dear colleague, could you share the recorded outcome for O=C1N=C(N=Nc2c(O)[nH]c3ccccc23)S/C1=C/c1ccc(Br)cc1 when you have a moment?
Result: 1

Query: Dear colleague, could you share the recorded outcome for N#C/C(=C\c1ccc(-c2ccc(C(=O)O)cc2)o1)C(=O)NCc1ccco1 when you have a moment?
Result: 0

Query: Dear colleague, could you share the recorded outcome for Cc1ccc(C)n1-c1cc(C(=O)O)ccc1O when you have a moment?
Result: 0

Query: Dear colleague, could you share the recorded outcome for O=C1N=c2ccccc2=C1c1sc(=Nc2ccccc2)n(-c2ccccc2)c1O when you have a moment?
Result: 0
